For each of the substances below, state its Kidney weight.
# protocol: Tolerability in Sprague-Dawley rats, body and organ weights (Example 21)
# Format: in vivo
# condition: male Sprague-Dawley rats, 50 mg/kg s.c. weekly for 6 weeks (7 doses), end of study
Strand notation (5' to 3'): a small letter for the sugar, then the base; units joined by * are phosphorothioate-linked, units joined directly phosphodiester-linked; [ ] holds rarer units or linkages, { } end groups; capitals alone tell only the bases. e = 2'-O-(2-methoxyethyl) (MOE); k = constrained ethyl (cEt); [5mC] = 5-methylcytosine; d = 2'-deoxy (DNA)
One number for each entry, in g.

1198874 (kA*kA*dG*dT*dG*dT*dA*dT*dG*dT*d[5mC]*kA*eG*kA*eA*kG) [compound 1198874] ... 3.67

Shift focus to the following entry.
Q: Can you look up the measured Kidney weight of 1198440 (AAGTGTATGTCAGAAG; cEt, 2'-MOE, 5-methylcytosine, phosphorothioate modifications, further chemistry not given here) [compound 1198440] for me?
Result: 3.29

====

# System: Yap1 mRNA
# protocol: Dose-dependent inhibition of human Yap1 in SNU-449 cells (Example 9, RTS36584)
# Assay type: cell-based
# condition: 31.3 nM, free uptake, approximately 48 hours
Strand notation (5' to 3'): a small letter for the sugar, then the base; units joined by * are phosphorothioate-linked, units joined directly phosphodiester-linked; [ ] holds rarer units or linkages, { } end groups; capitals alone tell only the bases. e = 2'-O-(2-methoxyethyl) (MOE); k = constrained ethyl (cEt); [5mC] = 5-methylcytosine; d = 2'-deoxy (DNA); m = 2'-O-methyl
For each of the substances below, state its % UTC (Yap1 mRNA).
Give bare numbers, in % UTC.

1198719 (kG*eG*kA*dA*dA*dT*dT*dG*dT*d[5mC]*dT*d[5mC]*eA*eT*kG*k[5mC]; antisense) [compound 1198719] ... 67
1200820 (kG*kG*kA*dA*dG*mA*dT*d[5mC]*dT*dG*dA*dA*dA*k[5mC]*kT*k[5mC]; antisense) [compound 1200820] ... 104
1198569 (CACTTTTACATTAGGA; modified gapmer, chemistry not fully specified) [compound 1198569] ... 71
1074464 (kT*kT*kA*dG*dA*dG*dT*dA*dT*dG*dT*dG*dG*k[5mC]*kA*kA) [compound 1074464] ... 109
1198494 (kG*kT*dG*d[5mC]*dT*dT*dT*dG*dG*dA*dA*eG*kA*eT*k[5mC]*eT; antisense) [compound 1198494] ... 59

Shift focus to the following entry.
Q: Can you look up the measured % UTC (Yap1 mRNA) of 1198805 (kA*kT*dT*dG*dT*d[5mC]*dT*d[5mC]*dA*dT*dG*k[5mC]*e[5mC]*kT*eT*kA; antisense) [compound 1198805] for me?
Result: 61

====

For each of the substances below, state its YAP1 (% UTC).
# Test system: Yap1 mRNA
# protocol: Antisense inhibition of human Yap1 in A-431 cells by cEt gapmers, single dose (Example 2, RTS4814)
# Assay type: cell-based
# condition: Table 25; Yap1 mRNA as percent of untreated control; 3-10-3 cEt gapmers targeting SEQ ID NO.: 1, and 2
Strand notation (5' to 3'): a small letter for the sugar, then the base; units joined by * are phosphorothioate-linked, units joined directly phosphodiester-linked; [ ] holds rarer units or linkages, { } end groups; capitals alone tell only the bases. k = constrained ethyl (cEt); [5mC] = 5-methylcytosine; d = 2'-deoxy (DNA)
Give bare numbers, in % UTC.

Recorded results for 2 substances are shown here.
1076203 (kG*kT*kT*dA*dA*dT*dA*d[5mC]*dA*dT*dG*dG*d[5mC]*k[5mC]*kA*kA; antisense) [Compound 1076203] ... 29
1074219 (antisense kA*kG*kT*d[5mC]*dA*dG*dG*dG*d[5mC]*dT*d[5mC]*d[5mC]*dT*kG*k[5mC]*kA) [Compound 1074219] ... 30

Q: Can you look up the measured YAP1 (% UTC) of 1075083 (antisense k[5mC]*kA*kA*d[5mC]*dA*dA*d[5mC]*dA*d[5mC]*dT*d[5mC]*d[5mC]*dT*k[5mC]*kT*kT) [Compound 1075083] for me?
Result: 54

Cited source for all entries: patent US11214803B2
